# test.name: in vivo
# conditions: cynomolgus monkey, iv, 2 mg/kg
measurement.type: Cmax

Consider the compound CC[C@H](C)[C@H](NC(=O)[C@H](N)Cc1ccc(O)cc1)C(=O)N[C@H]1CSSC[C@@H](C(=O)N(C)[C@H](C(N)=O)[C@@H](C)CC)NC(=O)[C@H](CCCNC(=N)N)NC(=O)[C@H](Cc2c[nH]cn2)NC(=O)[C@H](C)NC(=O)CN(C)C(=O)[C@H](Cc2c[nH]c3ccccc23)NC(=O)[C@H](CC(=O)O)NC(=O)[C@H](CCC(N)=O)NC(=O)[C@H](Cc2cn(C)c3ccccc23)NC(=O)[C@H](C(C)C)NC1=O [peptide 14] and give its recorded Cmax. ~28 µM

----------
# test.name: in vivo
# Set-up: species or system cynomolgus monkeys (Macaca fascicularis)
# conditions: cynomolgus monkey, sc, 2 mg/kg
measurement.type: Cmax

Supply measured Cmax of CC[C@H](C)[C@H](NC(=O)[C@H](N)Cc1ccc(O)cc1)C(=O)N[C@H]1CSSC[C@@H](C(=O)N(C)[C@H](C(N)=O)[C@@H](C)CC)NC(=O)[C@H](CCCNC(=N)N)NC(=O)[C@H](Cc2c[nH]cn2)NC(=O)[C@H](C)NC(=O)CN(C)C(=O)[C@H](Cc2c[nH]c3ccccc23)NC(=O)[C@H](CC(=O)O)NC(=O)[C@H](CCC(N)=O)NC(=O)[C@H](Cc2cn(C)c3ccccc23)NC(=O)[C@H](C(C)C)NC1=O [peptide 14] in your reply. ~12.5 µM

----------
# test.name: in vitro
# conditions: human, plasma
measurement.type: remaining at 120 h, 20 μM

// fetch remaining at 120 h, 20 μM given entry CC[C@H](C)[C@H](NC(=O)[C@H](N)Cc1ccc(O)cc1)C(=O)N[C@H]1CSSC[C@@H](C(=O)N(C)[C@H](C(N)=O)[C@@H](C)CC)NC(=O)[C@H](CCCNC(=N)N)NC(=O)[C@H](Cc2c[nH]cn2)NC(=O)[C@H](C)NC(=O)CN(C)C(=O)[C@H](Cc2c[nH]c3ccccc23)NC(=O)[C@H](CC(=O)O)NC(=O)[C@H](CCC(N)=O)NC(=O)[C@H](Cc2cn(C)c3ccccc23)NC(=O)[C@H](C(C)C)NC1=O [peptide 14] > 55%

----------
# study.system: C3b (Homo sapiens)
# Construct: Biotinylated C3b was captured site-specifically on a streptavidin chip
# test.name: SPR kinetic analysis of binding to immobilized C3b (Biacore, single cycle kinetics)
# conditions: Table 1, N-terminal analogs; read-out: KD: binding constant from SPR
Bridge positions count the residues as written; N and C are the ends. Square brackets hold non-standard residues; d marks the D form. Peptide text beside a SMILES is read from it. Trp(1-Me) = Cn1cc(C[C@H](N)C(=O)O)c2ccccc21; NMeI = CC[C@H](C)[C@H](NC)C(=O)O; Sar = CNCC(=O)O
measurement.type: Kd (nM)
Could you give me the number in nM? Just the number is fine.

Write Kd of CC[C@H](C)[C@H](NC(=O)CNC)C(=O)N[C@H]1CSSC[C@@H](C(=O)N(C)[C@H](C(N)=O)[C@@H](C)CC)NC(=O)[C@H](CCCNC(=N)N)NC(=O)[C@H](Cc2c[nH]cn2)NC(=O)[C@H](C)NC(=O)CN(C)C(=O)[C@H](Cc2c[nH]c3ccccc23)NC(=O)[C@H](CC(=O)O)NC(=O)[C@H](CCC(N)=O)NC(=O)[C@H](Cc2cn(C)c3ccccc23)NC(=O)[C@H](C(C)C)NC1=O [peptide 3] ; system used: C3b (Homo sapiens) 1.6

Report measured Kd on C3b (Homo sapiens); entry: `CC[C@H](C)[C@H](NC(=O)[C@H](Cc1ccccc1)NC)C(=O)N[C@H]1CSSC[C@@H](C(=O)N(C)[C@H](C(N)=O)[C@@H](C)CC)NC(=O)[C@H](CCCNC(=N)N)NC(=O)[C@H](Cc2c[nH]cn2)NC(=O)[C@H](C)NC(=O)CN(C)C(=O)[C@H](Cc2c[nH]c3ccccc23)NC(=O)[C@H](CC(=O)O)NC(=O)[C@H](CCC(N)=O)NC(=O)[C@H](Cc2cn(C)c3ccccc23)NC(=O)[C@H](C(C)C)NC1=O` 1.8

State recorded Kd with C3b (Homo sapiens), entry CC[C@H](C)[C@@H](C(N)=O)N(C)C(=O)[C@@H]1CSSC[C@H](NC(=O)[C@H](Cc2c[nH]c3ccccc23)NC(C)=O)C(=O)N[C@@H](C(C)C)C(=O)N[C@@H](Cc2cn(C)c3ccccc23)C(=O)N[C@@H](CCC(N)=O)C(=O)N[C@@H](CC(=O)O)C(=O)N[C@@H](Cc2c[nH]c3ccccc23)C(=O)N(C)CC(=O)N[C@@H](C)C(=O)N[C@@H](Cc2c[nH]cn2)C(=O)N[C@@H](CCCNC(=N)N)C(=O)N1 [peptide 19] (Ac-WCV[Trp(1-Me)]QDW[Sar]AHRC[NMeI]-NH2; disulfide 2-12) , no comment. 0.5

----------
Please provide measured pIC50 for the entries that follow.
# Tested on: classical pathway of complement
# test.name: ELISA inhibition of classical pathway complement activation
# Format: biochemical
# conditions: read-out: IC50, peptide concentration to reach 50% inhibition of classical pathway complement activation; Table 1
Bridge positions count the residues as written; N and C are the ends. Square brackets hold non-standard residues; d marks the D form. Peptide text beside a SMILES is read from it. Trp(1-Me) = Cn1cc(C[C@H](N)C(=O)O)c2ccccc21; NMeI = CC[C@H](C)[C@H](NC)C(=O)O; Sar = CNCC(=O)O
Reminder that pIC50 is minus the log10 of a molar concentration.

Give pIC50 for the following compound: CC[C@H](C)[C@H](NC(=O)[C@H](N)Cc1ccc(O)cc1)C(=O)N[C@H]1CSSC[C@@H](C(=O)N(C)[C@H](C(N)=O)[C@@H](C)CC)NC(=O)[C@H](CCCNC(=N)N)NC(=O)[C@H](Cc2c[nH]cn2)NC(=O)[C@H](C)NC(=O)CN(C)C(=O)[C@H](Cc2c[nH]c3ccccc23)NC(=O)[C@H](CC(=O)O)NC(=O)[C@H](CCC(N)=O)NC(=O)[C@H](Cc2cn(C)c3ccccc23)NC(=O)[C@H](C(C)C)NC1=O [peptide 14] 7.18

Read the entry CC[C@H](C)[C@H](NC(=O)CN)C(=O)N[C@H]1CSSC[C@@H](C(=O)N(C)[C@H](C(N)=O)[C@@H](C)CC)NC(=O)[C@H](CCCNC(=N)N)NC(=O)[C@H](Cc2c[nH]cn2)NC(=O)[C@H](C)NC(=O)CN(C)C(=O)[C@H](Cc2c[nH]c3ccccc23)NC(=O)[C@H](CC(=O)O)NC(=O)[C@H](CCC(N)=O)NC(=O)[C@H](Cc2cn(C)c3ccccc23)NC(=O)[C@H](C(C)C)NC1=O [peptide 2] (H-GICV[Trp(1-Me)]QDW[Sar]AHRC[NMeI]-NH2; disulfide 3-13) and write its reported pIC50. 6.95

----------
# study.system: C3b (Homo sapiens, UniProt P01024)
# Construct: Biotinylated C3b was captured site-specifically on a streptavidin chip
# Sequence (P01024 23-667 limits assumed): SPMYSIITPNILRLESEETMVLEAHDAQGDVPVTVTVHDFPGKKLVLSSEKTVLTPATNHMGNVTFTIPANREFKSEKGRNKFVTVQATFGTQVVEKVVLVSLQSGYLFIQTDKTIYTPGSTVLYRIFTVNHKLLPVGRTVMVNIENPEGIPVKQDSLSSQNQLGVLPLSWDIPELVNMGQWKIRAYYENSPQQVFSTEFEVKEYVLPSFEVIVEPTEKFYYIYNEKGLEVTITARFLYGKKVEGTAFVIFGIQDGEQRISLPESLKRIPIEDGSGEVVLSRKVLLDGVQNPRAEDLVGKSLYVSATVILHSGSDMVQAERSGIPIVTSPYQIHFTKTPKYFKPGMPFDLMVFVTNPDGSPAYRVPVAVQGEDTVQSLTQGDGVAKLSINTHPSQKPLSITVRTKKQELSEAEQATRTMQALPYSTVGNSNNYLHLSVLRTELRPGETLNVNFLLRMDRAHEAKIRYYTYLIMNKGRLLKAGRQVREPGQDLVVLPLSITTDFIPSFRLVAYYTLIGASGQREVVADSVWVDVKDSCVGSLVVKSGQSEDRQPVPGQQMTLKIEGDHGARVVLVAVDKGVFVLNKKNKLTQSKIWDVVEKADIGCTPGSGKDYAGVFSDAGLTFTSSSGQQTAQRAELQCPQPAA
# Sequence (P01024 749-1663 partner limits assumed): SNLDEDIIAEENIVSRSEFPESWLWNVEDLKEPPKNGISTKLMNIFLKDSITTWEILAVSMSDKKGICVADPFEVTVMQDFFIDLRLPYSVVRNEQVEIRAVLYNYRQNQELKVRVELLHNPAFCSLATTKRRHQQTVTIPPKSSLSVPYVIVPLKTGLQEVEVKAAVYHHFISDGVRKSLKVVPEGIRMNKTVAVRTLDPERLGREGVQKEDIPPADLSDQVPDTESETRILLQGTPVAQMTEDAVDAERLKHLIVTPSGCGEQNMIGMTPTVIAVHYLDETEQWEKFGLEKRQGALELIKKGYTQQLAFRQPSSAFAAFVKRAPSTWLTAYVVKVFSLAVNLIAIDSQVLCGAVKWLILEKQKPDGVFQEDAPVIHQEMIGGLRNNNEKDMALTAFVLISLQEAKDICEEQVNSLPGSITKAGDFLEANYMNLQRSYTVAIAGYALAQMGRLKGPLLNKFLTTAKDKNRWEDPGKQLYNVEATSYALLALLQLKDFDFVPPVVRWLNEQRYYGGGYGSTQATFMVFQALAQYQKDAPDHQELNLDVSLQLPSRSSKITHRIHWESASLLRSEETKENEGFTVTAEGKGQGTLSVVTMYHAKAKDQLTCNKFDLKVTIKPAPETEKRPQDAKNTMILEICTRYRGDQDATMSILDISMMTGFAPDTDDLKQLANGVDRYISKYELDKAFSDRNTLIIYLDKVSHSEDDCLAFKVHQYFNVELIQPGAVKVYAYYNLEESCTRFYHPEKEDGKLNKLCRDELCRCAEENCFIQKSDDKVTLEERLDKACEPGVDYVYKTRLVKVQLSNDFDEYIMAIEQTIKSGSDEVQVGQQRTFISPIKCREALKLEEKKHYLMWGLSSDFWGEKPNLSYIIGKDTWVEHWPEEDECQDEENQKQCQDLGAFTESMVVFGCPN
# test.name: SPR kinetic analysis of binding to immobilized C3b (Biacore, single cycle kinetics)
# conditions: Table 1, N-terminal analogs; read-out: KD: binding constant from SPR
Bridge positions count the residues as written; N and C are the ends. Square brackets hold non-standard residues; d marks the D form. Peptide text beside a SMILES is read from it. Trp(1-Me) = Cn1cc(C[C@H](N)C(=O)O)c2ccccc21; NMeI = CC[C@H](C)[C@H](NC)C(=O)O; Sar = CNCC(=O)O
measurement.type: pKd
Please keep in mind that pKd is minus log10 of the molar concentration; only the number is needed.

For `CC[C@H](C)[C@H](NC(=O)[C@H](C)NC)C(=O)N[C@H]1CSSC[C@@H](C(=O)N(C)[C@H](C(N)=O)[C@@H](C)CC)NC(=O)[C@H](CCCNC(=N)N)NC(=O)[C@H](Cc2c[nH]cn2)NC(=O)[C@H](C)NC(=O)CN(C)C(=O)[C@H](Cc2c[nH]c3ccccc23)NC(=O)[C@H](CC(=O)O)NC(=O)[C@H](CCC(N)=O)NC(=O)[C@H](Cc2cn(C)c3ccccc23)NC(=O)[C@H](C(C)C)NC1=O` , write its pKd. 8.60

In one line, give reported pKd of the entry CC[C@H](C)[C@@H](C(N)=O)N(C)C(=O)[C@@H]1CSSC[C@H](NC(=O)CNC(=O)[C@@H](N)Cc2ccc(O)cc2)C(=O)N[C@@H](C(C)C)C(=O)N[C@@H](Cc2cn(C)c3ccccc23)C(=O)N[C@@H](CCC(N)=O)C(=O)N[C@@H](CC(=O)O)C(=O)N[C@@H](Cc2c[nH]c3ccccc23)C(=O)N(C)CC(=O)N[C@@H](C)C(=O)N[C@@H](Cc2c[nH]cn2)C(=O)N[C@@H](CCCNC(=N)N)C(=O)N1 [peptide 20] (H-YGCV[Trp(1-Me)]QDW[Sar]AHRC[NMeI]-NH2; disulfide 3-13) . 8.46

Determine its reported pKd: `CC[C@H](C)[C@H](NC(=O)[C@@H](NC)C(C)C)C(=O)N[C@H]1CSSC[C@@H](C(=O)N(C)[C@H](C(N)=O)[C@@H](C)CC)NC(=O)[C@H](CCCNC(=N)N)NC(=O)[C@H](Cc2c[nH]cn2)NC(=O)[C@H](C)NC(=O)CN(C)C(=O)[C@H](Cc2c[nH]c3ccccc23)NC(=O)[C@H](CC(=O)O)NC(=O)[C@H](CCC(N)=O)NC(=O)[C@H](Cc2cn(C)c3ccccc23)NC(=O)[C@H](C(C)C)NC1=O` 8.72

Report measured pKd; entry is `CC[C@H](C)[C@H](NC(=O)[C@H](N)Cc1ccccc1)C(=O)N[C@H]1CSSC[C@@H](C(=O)N(C)[C@H](C(N)=O)[C@@H](C)CC)NC(=O)[C@H](CCCNC(=N)N)NC(=O)[C@H](Cc2c[nH]cn2)NC(=O)[C@H](C)NC(=O)CN(C)C(=O)[C@H](Cc2c[nH]c3ccccc23)NC(=O)[C@H](CC(=O)O)NC(=O)[C@H](CCC(N)=O)NC(=O)[C@H](Cc2cn(C)c3ccccc23)NC(=O)[C@H](C(C)C)NC1=O` 8.96

Tell me measured pKd for `CC[C@H](C)[C@H](NC(=O)[C@@H](C)N)C(=O)N[C@H]1CSSC[C@@H](C(=O)N(C)[C@H](C(N)=O)[C@@H](C)CC)NC(=O)[C@H](CCCNC(=N)N)NC(=O)[C@H](Cc2c[nH]cn2)NC(=O)[C@H](C)NC(=O)CN(C)C(=O)[C@H](Cc2c[nH]c3ccccc23)NC(=O)[C@H](CC(=O)O)NC(=O)[C@H](CCC(N)=O)NC(=O)[C@H](Cc2cn(C)c3ccccc23)NC(=O)[C@H](C(C)C)NC1=O` please. 8.60

Where do the numbers come from? From patent US20210032291A1.
